subject.of.test: human FPR2 (Homo sapiens (Human))
Sequence (P25090 whole entry): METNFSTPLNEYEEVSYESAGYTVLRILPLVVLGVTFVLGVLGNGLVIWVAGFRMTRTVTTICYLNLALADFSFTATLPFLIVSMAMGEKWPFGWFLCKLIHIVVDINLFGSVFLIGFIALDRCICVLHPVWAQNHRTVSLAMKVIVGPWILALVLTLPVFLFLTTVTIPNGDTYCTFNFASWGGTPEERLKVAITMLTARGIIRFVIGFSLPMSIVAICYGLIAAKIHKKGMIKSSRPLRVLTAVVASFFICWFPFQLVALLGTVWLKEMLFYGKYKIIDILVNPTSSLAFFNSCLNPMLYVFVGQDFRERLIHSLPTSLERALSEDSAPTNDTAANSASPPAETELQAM
assay.remarks: FPR2 cyclic adenosine monophosphate (cAMP) assay
condition.details: CHO cells overexpressing human FPR2; forskolin 5 µM; inhibition of cAMP production; read-out: hFPR2 cAMP2 EC50
Recorded EC50 determines the group label, using lower = under 3 nM, middle = from 3 nM up to 5 nM, upper = 5 nM and over

COc1cc(F)c([C@@H]2CN(c3nc(N4C[C@@H]5C[C@H]4CN5C)ccc3OC)C(=O)[C@H]2NC(=O)c2ccc(Cl)cc2)c(F)c1    upper
COc1cc(F)c([C@@H]2CN(c3nccc(NC4CCOC4)c3C(F)(F)F)C(=O)[C@H]2NC(=O)c2ccc(Cl)cc2)c(F)c1 (stereo partly shown) [Example 125]    middle
COc1cc(F)c([C@@H]2CN(c3cccn(CC(F)F)c3=O)C(=O)[C@H]2NC(=O)c2ccc(OC(F)F)cc2)c(F)c1    middle
COc1cc(F)c([C@@H]2CN(c3ccnc(N4C[C@@H]5C[C@H]4CN5C)c3C(F)(F)F)C(=O)[C@H]2NC(=O)c2ccc(OC(F)F)cc2)c(F)c1    lower
COc1cc(F)c([C@@H]2CN(c3cccn(CCC(F)(F)F)c3=O)C(=O)[C@H]2NC(=O)c2ccc(OC(F)F)cc2)c(F)c1    upper
COc1cc(F)c([C@@H]2CN(c3cccc(N4C[C@@H](C)N(C)[C@@H](C)C4)n3)C(=O)[C@@H]2NC(=O)c2ccc(OC(F)F)cc2)c(F)c1    upper
COCCn1ncc(C)c(N2C[C@@H](c3c(F)cc(OC)cc3F)[C@H](NC(=O)c3ccc(OC(F)F)cc3)C2=O)c1=O [Example 658]    middle
COc1cc(F)c([C@@H]2CN(c3nccc(NCC4CCCO4)c3C(F)(F)F)C(=O)[C@H]2NC(=O)c2ccc(Cl)cc2)c(F)c1 (stereo partly shown)    middle

Just checking, what class would you give "CCn1cncc(N2C[C@@H](c3c(F)cc(OC)cc3F)[C@H](NC(=O)c3ccc(OC(F)F)cc3)C2=O)c1=O" here?
middle

Further, for "COCCn1cccc(N2C(=O)[C@@H](NC(=O)c3ccc(Cl)cc3)[C@H](c3c(F)cc(OC)cc3F)[C@H]2C)c1=O" ?
upper

Further, for "COc1cc(F)c([C@@H]2CN(c3cccc(N4CCN(C)CC4)n3)C(=O)[C@H]2NC(=O)c2ccc(OC(F)F)cc2)c(F)c1" ?
lower

Continue with COc1ccc([C@@H]2CN(c3cccn(CC(OC)C(F)(F)F)c3=O)C(=O)[C@H]2NC(=O)c2ccc(Cl)cc2)cc1 (stereo partly shown)
lower

Now consider CCn1cccc(N2C[C@@H](c3c(F)cc(OC)cc3F)[C@H](NC(=O)c3ccc(OC(F)F)cc3)C2=O)c1=O [Example 169] and answer again.
middle

* * *

subject.of.test: human FPR2 (Homo sapiens (Human))
assay.remarks: FPR2 cyclic adenosine monophosphate (cAMP) assay
condition.details: CHO cells overexpressing human FPR2; forskolin 5 µM; inhibition of cAMP production; read-out: hFPR2 cAMP2 EC50
value.type: log10 of EC50 (log10 of the value in nM)
Scale: decimal log of EC50, EC50 in nM.

Worked examples follow.
COc1ccc([C@@H]2CN(c3cccn(CC(C)O)c3=O)C(=O)[C@H]2NC(=O)c2ccc(Cl)cc2)cc1 (stereo partly shown) [Example 391]    0.74
COc1cc(F)c([C@H]2[C@H](NC(=O)c3ccc(OC(F)F)cc3)C(=O)N(c3cccc(C4CCCN(C)C4)n3)[C@H]2C)c(F)c1 (stereo partly shown) [Example 513]    0.38
O=C(N[C@@H]1C(=O)N(c2cccn(CC(O)C(F)(F)F)c2=O)C[C@H]1c1ccc(Cl)cc1)c1ccc(OC(F)(F)F)cc1 (stereo partly shown) [Example 609]    0.26
COc1cc(F)c([C@@H]2CN(c3c(C)ccn(CCS(C)(=O)=O)c3=O)C(=O)[C@H]2NC(=O)c2ccc(OC(F)(F)F)cc2)c(F)c1 [Example 576]    0.15
COc1cc(F)c([C@@H]2CN(c3c(C)ccn(CCO)c3=O)C(=O)[C@H]2NC(=O)c2ccc(OC(F)F)cc2)c(F)c1 [Example 262]    0.88

Record log10 of EC50 for all entries; do not skip any.
1. COCC(CO)n1nccc(N2C[C@@H](c3c(F)cc(OC)cc3F)[C@H](NC(=O)c3ccc(Cl)cc3)C2=O)c1=O (stereo partly shown) [Example 477]
2. COc1cc(F)c([C@@H]2CN(c3cccn4cc(C5CC5)nc34)C(=O)[C@H]2NC(=O)c2ccc(Cl)cc2)c(F)c1 [Example 495]
3. COCCn1cc(C)c(C)c(N2C[C@@H](c3c(F)cc(OC)cc3F)C(NC(=O)c3ccc(Cl)cc3)C2=O)c1=O (stereo partly shown) [Example 641]
4. COc1cc(F)c([C@@H]2CN(c3c(C)ccn(CC(C)O)c3=O)C(=O)[C@H]2NC(=O)c2ccc(OC(F)F)cc2)c(F)c1 (stereo partly shown) [Example 360]
5. COc1cc(F)c([C@@H]2CN(c3nc(C4CCN(CC(F)(F)F)CC4)ccc3F)C(=O)[C@H]2NC(=O)c2ccc(OC(F)F)cc2)c(F)c1 [Example 550]
6. COc1cc(F)c([C@@H]2CN(c3cncn(C4CCN(C)C4)c3=O)C(=O)[C@H]2NC(=O)c2ccc(Cl)cc2)c(F)c1 (stereo partly shown) [Example 721]
7. COc1cc(F)c([C@@H]2CN(c3cccn(C(CO)C(F)(F)F)c3=O)C(=O)[C@H]2NC(=O)c2ccc(OC(F)F)cc2)c(F)c1 (stereo partly shown) [Example 582]
8. COc1cc(F)c([C@@H]2CN(c3c(C)ccn([C@H]4COC[C@@H]4O)c3=O)C(=O)[C@H]2NC(=O)c2ccc(Cl)cc2)c(F)c1 [Example 621]

0.00
0.20
0.45
0.51
1.00
0.75
0.67
1.95

* * *

subject.of.test: human FPR1 (Homo sapiens (Human))
Sequence (P21462 whole entry): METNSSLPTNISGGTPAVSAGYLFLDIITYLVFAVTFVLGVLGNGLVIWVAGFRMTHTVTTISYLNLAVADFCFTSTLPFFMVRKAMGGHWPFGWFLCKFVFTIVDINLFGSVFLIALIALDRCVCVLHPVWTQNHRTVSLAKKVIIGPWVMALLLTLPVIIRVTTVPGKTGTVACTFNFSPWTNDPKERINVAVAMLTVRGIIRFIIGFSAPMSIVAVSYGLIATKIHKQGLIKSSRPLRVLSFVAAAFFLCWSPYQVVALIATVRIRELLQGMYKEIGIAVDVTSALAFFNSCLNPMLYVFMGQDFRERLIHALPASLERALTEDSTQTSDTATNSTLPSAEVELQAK
assay.remarks: FPR1 cyclic adenosine monophosphate (cAMP) assay
Format: cell-based
condition.details: CHO cells overexpressing human FPR1; forskolin 10 µM; inhibition of cAMP production; read-out: hFPR1 cAMP EC50
value.type: EC50 (nM)
Give bare numbers, in nM.

// solved cases for EC50 follow
COc1cc(F)c([C@@H]2CN(c3cccn(CC(O)CO)c3=O)C(=O)[C@H]2NC(=O)c2ccc(Cl)cc2)c(F)c1 (stereo partly drawn) [Example 680]    780
COc1ccc([C@@H]2CN(c3cccn(CC(O)C(F)(F)F)c3=O)C(=O)[C@H]2NC(=O)c2ccc(OC(F)(F)F)cc2)cc1 (stereo partly drawn) [Example 657]    45

Bench note: what EC50 did "COc1ccc([C@@H]2CN(c3c(C)ccn(C4CCC4)c3=O)C(=O)[C@H]2NC(=O)c2ccc(OC(F)F)cc2)c(F)c1" show?
1.5

* * *

subject.of.test: human FPR1 (Homo sapiens (Human))
assay.remarks: FPR1 cyclic adenosine monophosphate (cAMP) assay
condition.details: CHO cells overexpressing human FPR1; forskolin 10 µM; inhibition of cAMP production; read-out: hFPR1 cAMP EC50
Protocol: N-formyl peptide receptors (FPRs) are a family of chemo attractant receptors that facilitate leukocyte response during inflammation. FPRs belong to the seven-transmembrane G protein-coupled receptor superfamily and are linked to inhibitory G-proteins (Gi). […] FPR2 and FPR1 Cyclic Adenosine Monophosphate (cAMP) Assays. […] The level of intracellular cAMP was determined using the HTRF HiRange cAMP assay reagent kit (Cisbio) according to manufacturer’s instruction. […]
Field: EC50. Provide a value for each of the molecules that follow.

COc1cc(F)c([C@@H]2CN(c3ccccc3P(C)(C)=O)C(=O)[C@H]2NC(=O)c2ccc(OC(F)(F)F)cc2)c(F)c1    540 nM
CCn1cccc(N2C[C@@H](c3c(F)cc(OC)cc3F)[C@H](NC(=O)c3ccc(C#N)cc3)C2=O)c1=O    200 nM
COc1cc(F)c([C@@H]2CN(c3ccn(CC(F)F)n3)C(=O)[C@H]2NC(=O)c2ccc(OC(F)(F)F)cc2)c(F)c1    14 nM

Please give EC50 for each item listed below.
1. COCCn1cccc(N2C(=O)[C@@H](NC(=O)c3ccc(Cl)cc3)[C@H](c3c(F)cc(OC)cc3F)[C@@H]2C)c1=O
2. COc1cc(F)c([C@H]2[C@H](NC(=O)c3ccc(OC(F)F)cc3)C(=O)N(c3ncccc3OC)[C@H]2C)c(F)c1
3. COc1cc(F)c([C@@H]2CN(c3ncccc3CO)C(=O)[C@H]2NC(=O)c2ccc(OC(F)(F)F)cc2)c(F)c1
4. COc1ccc([C@@H]2CN(c3cccn(CC(OC)C(F)(F)F)c3=O)C(=O)[C@H]2NC(=O)c2ccc(OC(F)(F)F)cc2)c(F)c1 (stereo partly shown)
5. COc1cc(F)c([C@@H]2CN(c3cccn(CC(C)O)c3=O)C(=O)[C@H]2NC(=O)c2ccc(OC(F)F)cc2)c(F)c1 (stereo partly shown) [Example 141]
6. CCn1cncc(N2C[C@@H](c3c(F)cc(OC)cc3F)[C@H](NC(=O)c3ccc(Cl)cc3)C2=O)c1=O
7. COc1cc(F)c([C@H]2[C@H](NC(=O)c3ccc(OC(F)F)cc3)C(=O)N(c3cccc(C4CCN(CCO)CC4)n3)[C@H]2C)c(F)c1

1. 94 nM
2. 170 nM
3. 570 nM
4. 1 nM
5. 29 nM
6. 3800 nM
7. 1400 nM

For every listed record, write down its EC50.
1. COc1cc(C2CCN(CCF)CC2)nc(N2C[C@@H](c3c(F)cc(OC)cc3F)[C@H](NC(=O)c3ccc(OC(F)F)cc3)C2=O)c1
2. COc1cc(F)c([C@@H]2CN(c3c(C)ccn(CC4CCOC4)c3=O)C(=O)[C@H]2NC(=O)c2ccc(OC(F)F)cc2)c(F)c1 (stereo partly shown) [Example 693]
3. COCC(C(=O)N(C)C)n1ccc(C)c(N2C[C@@H](c3c(F)cc(OC)cc3F)[C@H](NC(=O)c3ccc(OC(F)F)cc3)C2=O)c1=O (stereo partly shown)

1: > 5000 nM; 2: 2.5 nM; 3: 1.6 nM
